target: T1, human CD47 (human, UniProt Q08722 19-139); assay: SPR; protein made in E. coli
T1 construct: extracellular domain; also called CD47 ECD
T1 sequence (Q08722 19-139 limits assumed): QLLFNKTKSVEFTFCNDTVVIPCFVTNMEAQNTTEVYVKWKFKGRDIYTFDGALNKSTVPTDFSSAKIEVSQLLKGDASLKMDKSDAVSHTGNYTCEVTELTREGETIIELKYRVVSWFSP
property_name: Kd (pM)
Field format: number, assumed pM, no unit text.

Some binders with known Kd results, for comparison:
binder	Kd / pM
SIRP-α D1 variant polypeptide of SEQ ID NO: 59 (receptor, engineered SIRP-α D1 domain) EEELQIIQPDKSVSVAAGESAILHCTITSLFPVGPIQWFRGAGPARVLIYNQKQGPFPRVTTVSETTKRENMDFSISISNITPADAGTYYCIKFRKGSPDTEFKSGAGTELSVRAKPS	14000
SIRP-α D1 variant polypeptide of SEQ ID NO: 61 (receptor, engineered SIRP-α D1 domain) EEELQIIQPDKSVSVAAGESAILHCTITSLFPVGPIQWFRGAGPARVLIYNQRQGHFPRVTTVSETTKRENMDFSISISNITPADAGTYYCIKFRKGSPDTEFKSGAGTELSVRAKPS	380
SIRP-α D1 variant polypeptide of SEQ ID NO: 57 (receptor, engineered SIRP-α D1 domain) EEELQIIQPDKSVSVAAGESAILHCTITSLIPVGPIQWFRGAGPARVLIYNQRQGPFPRVTTVSETTKRENMDFSISISNITPADAGTYYCIKFRKGSPDTEFKSGAGTELSVRAKPS	360

Now for the binder whose Kd we want.
What the record says about SIRP-α D1 variant polypeptide of SEQ ID NO: 60 (receptor, engineered SIRP-α D1 domain) EEELQIIQPDKSVSVAAGESAILHCTITSLFPVGPIQWFRGAGPARVLIYNQREGPFPRVTTVSETTKRENMDFSISISNITPADAGTYYCIKFRKGSPDTEFKSGAGTELSVRAKPS : Kd is 380
